Where do these numbers come from? They come from ChEMBL document CHEMBL1150313.

Study System: Stromelysin-2 (Homo sapiens)
Sequence (P09238 99-476 limits assumed): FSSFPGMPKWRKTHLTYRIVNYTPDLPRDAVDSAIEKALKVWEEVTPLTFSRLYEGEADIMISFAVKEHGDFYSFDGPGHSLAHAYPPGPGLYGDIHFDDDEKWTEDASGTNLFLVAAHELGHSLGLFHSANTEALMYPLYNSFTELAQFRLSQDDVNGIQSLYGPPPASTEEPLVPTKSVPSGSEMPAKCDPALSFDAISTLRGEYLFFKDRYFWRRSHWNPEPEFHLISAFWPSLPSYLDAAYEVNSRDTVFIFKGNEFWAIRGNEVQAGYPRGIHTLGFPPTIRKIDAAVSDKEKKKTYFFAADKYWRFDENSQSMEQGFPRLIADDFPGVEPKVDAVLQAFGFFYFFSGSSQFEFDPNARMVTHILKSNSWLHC
Method Description: Inhibition of human recombinant MMP10 at 10 uM
Recorded inhibition for the following compounds
Value expressed in %; do not type the unit.

Prompt: Returns the measured inhibition for the input compound. Input: `O=C(NO)[C@H](CCCCNS(=O)(=O)c1ccc(C(F)(F)F)cc1)NS(=O)(=O)c1ccc(C(F)(F)F)cc1`
Completion: 1.8

Prompt: Reported inhibition, compound `O=C(NO)[C@H](CCCCNS(=O)(=O)c1ccc(I)cc1)NS(=O)(=O)c1ccc(I)cc1` : ____
Completion: 30.9

Prompt: Returns the measured inhibition for the input compound. Input: `O=C(NO)[C@H](CCCCNS(=O)(=O)c1ccccc1)NS(=O)(=O)c1ccccc1`
Completion: 34.5

Prompt: Which inhibition value is on record for `O=C(NO)[C@H](CCCCNS(=O)(=O)c1ccc(Br)cc1)NS(=O)(=O)c1ccc(Br)cc1` ?
Completion: 34.5

###

Study System: Matrilysin (Homo sapiens, UniProt P09237)
Sequence (P09237 whole entry): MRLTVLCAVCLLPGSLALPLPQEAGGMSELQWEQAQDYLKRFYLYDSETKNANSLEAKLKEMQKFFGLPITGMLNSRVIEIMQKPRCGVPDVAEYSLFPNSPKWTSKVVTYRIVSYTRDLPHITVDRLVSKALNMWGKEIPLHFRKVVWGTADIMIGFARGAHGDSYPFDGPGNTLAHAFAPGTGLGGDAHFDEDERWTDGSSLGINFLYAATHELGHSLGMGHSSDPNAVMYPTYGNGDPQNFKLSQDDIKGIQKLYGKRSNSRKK
Method Description: Inhibition of human recombinant MMP7
Property: log10 Ki (log10 of the value in µM)
Values below are the log10 of the recorded Ki, with µM as the unit.

Prompt: What measured log10 Ki goes with COc1ccc(S(=O)(=O)NCC(NS(=O)(=O)c2ccc(OC)cc2OC)C(=O)NO)c(OC)c1 (centres undefined) ?
Completion: -0.54

Prompt: Entry under review: COc1ccc(S(=O)(=O)NCC(NS(=O)(=O)c2ccc(OC)cc2)C(=O)NO)cc1 (centres undefined) . Reported log10 Ki?
Completion: -0.22

Prompt: GET /values?readout=log10 Ki&item= O=C(NO)C(CNS(=O)(=O)c1ccc([N+](=O)[O-])cc1)NS(=O)(=O)c1ccc([N+](=O)[O-])cc1 (centres undefined)
Completion: 0.82

Prompt: Which log10 Ki reading was recorded for the molecule O=C(NO)C(CNS(=O)(=O)c1ccc(C(F)(F)F)cc1)NS(=O)(=O)c1ccc(C(F)(F)F)cc1 (centres undefined) ?
Completion: 1.00

Prompt: Item O=C(NO)C(CNS(=O)(=O)c1cccc(C(F)(F)F)c1)NS(=O)(=O)c1cccc(C(F)(F)F)c1 (centres undefined) has what recorded log10 Ki?
Completion: -0.22

Prompt: GET /values?readout=log10 Ki&item= `O=C(NO)[C@H](CCCNS(=O)(=O)c1ccc(C(F)(F)F)cc1)NS(=O)(=O)c1ccc(C(F)(F)F)cc1`
Completion: 0.85

Prompt: Recorded log10 Ki for O=C(NO)C(CNS(=O)(=O)c1ccccc1)NS(=O)(=O)c1ccccc1 (centres undefined) , please?
Completion: 0.45

Prompt: Reported log10 Ki, molecule `O=C(NO)[C@H](CCCNS(=O)(=O)c1ccc(I)cc1)NS(=O)(=O)c1ccc(I)cc1` : ____
Completion: 0.70

Prompt: Data request, read-out log10 Ki, for O=C(NO)C(CNS(=O)(=O)c1ccc(Br)cc1)NS(=O)(=O)c1ccc(Br)cc1 (centres undefined)
Completion: 0.74

###

Study System: UniProtKB P09237
Method Description: Inhibition of human recombinant MMP7
Property: Ki (µM)
Could you give me the number in µM? Just the number is fine.

Prompt: What does the data say about its Ki? Entry: CN(C)c1cccc2c(S(=O)(=O)NCC(NS(=O)(=O)c3cccc4c(N(C)C)cccc34)C(=O)NO)cccc12 (centres undefined)
Completion: 4.8

Prompt: # lookup: Ki of `O=C(NO)[C@H](CCCCNS(=O)(=O)c1ccc(Br)cc1)NS(=O)(=O)c1ccc(Br)cc1`
Completion: 2.2

Prompt: Dear colleague, I am looking for the recorded Ki of the following molecule: `O=C(NO)[C@H](CCCNS(=O)(=O)c1ccccc1)NS(=O)(=O)c1ccccc1`
Completion: 3

Prompt: If you can, please state the reported Ki value of `O=C(NO)[C@H](CCCCNS(=O)(=O)c1ccc(F)cc1)NS(=O)(=O)c1ccc(F)cc1` .
Completion: 3.1

Prompt: Query: Ki; subject: O=C(NO)C(CNS(=O)(=O)c1ccccc1C(F)(F)F)NS(=O)(=O)c1ccccc1C(F)(F)F (centres undefined)
Completion: 6

Prompt: Could you tell me which Ki is on file for O=C(NO)C(CNS(=O)(=O)c1c(F)c(F)c(F)c(F)c1F)NS(=O)(=O)c1c(F)c(F)c(F)c(F)c1F (centres undefined) ?
Completion: 8.6

Prompt: Entry O=C(NO)C(CNS(=O)(=O)c1ccc(Cl)cc1)NS(=O)(=O)c1ccc(Cl)cc1 (centres undefined) : reported Ki = ?
Completion: 0.237

Prompt: Entry O=C(NO)C(CNS(=O)(=O)c1ccc(F)cc1)NS(=O)(=O)c1ccc(F)cc1 (centres undefined) has what Ki?
Completion: 0.625

Prompt: Look at this molecule and give its reported Ki. O=C(NO)C(CNS(=O)(=O)c1ccc(I)cc1)NS(=O)(=O)c1ccc(I)cc1 (centres undefined)
Completion: 1.8

###

Study System: UniProt:P09238
Method Description: Inhibition of human recombinant MMP10 at 10 uM
Property: inhibition (%)
Supply the numeric figure in %, leaving out any unit text.

Known inhibition results, listed for orientation:
>  <Line Notation>
O=C(NO)[C@H](CCCNS(=O)(=O)c1ccc(Br)cc1)NS(=O)(=O)c1ccc(Br)cc1

>  <Study System>
UniProt:P09238

>  <inhibition [%]>
16.4

$$$$
>  <Line Notation>
O=C(NO)[C@H](CCCNS(=O)(=O)c1ccc(Cl)cc1)NS(=O)(=O)c1ccc(Cl)cc1

>  <Study System>
UniProt:P09238

>  <inhibition [%]>
34.5

$$$$
>  <Line Notation>
O=C(NO)[C@H](CCCNS(=O)(=O)c1ccc(F)cc1)NS(=O)(=O)c1ccc(F)cc1

>  <Study System>
UniProt:P09238

>  <inhibition [%]>
20

$$$$

Prompt: Any idea what its inhibition is? The molecule is `O=C(NO)[C@H](CCCCNS(=O)(=O)c1ccc(F)cc1)NS(=O)(=O)c1ccc(F)cc1`
Completion: 27.4
